Tested on: SK-MEL-2 melanoma
Test Name: NCI tumour cell line growth inhibition, 48 h; in the data active = GI50 below about 0.43 µM; inactive = the rest
Permitted responses: active, inactive

// below: answered compounds
COc1cc2ncn(-c3cc(OCc4ccccc4C(F)(F)F)c(C(=O)N(C)C)s3)c2cc1OC: inactive
[C](#Cc1ccccc1)[Hg][C]#Cc1ccccc1: inactive
O=C(O)c1ccc(NCn2nc(-c3ccccc3O)oc2=S)cc1: inactive
CCOC(=O)c1[nH]c(Br)c(-c2ccc(OC)c(OC)c2)c1Br: active
COc1cc2c(c(OC)c1OC)-c1ncc3c(OC)c(OC)c(OC)cc3c1C2: inactive
FC(F)(c1ccc2ncccc2c1)c1nnc2ccc(-c3ccncc3)nn12: inactive

Kindly provide the recorded test outcome for the following compound: CCC[CH2][Sn]([Cl])([Cl])[CH2]CCC
inactive

Same again, this time with COc1cc(F)c(F)c(Nc2ccc(I)cc2F)c1NS(=O)(=O)C1(C[C@H](O)CO)CC1
active

And for CC[n+]1oc(C(=O)c2ccc(Cl)cc2)c(-c2ccccc2)c1-c1ccccc1.[Cl][Fe]([Cl])([Cl])[Cl] ?
inactive

Lookup CS(=O)(=O)CCNCc1cc(-c2cc3c(Nc4ccc(OCc5cccc(F)c5)c(Cl)c4)ncnc3s2)cs1
inactive

* * *

Recorded GI50 by entry
System: OVCAR-5 ovarian
Test Name: NCI tumour cell line growth inhibition, 48 h

Example entries begin here.
O=[N+]([O-])c1cc(Cl)c2[nH]c3c(Cl)cc([N+](=O)[O-])cc3c2c1: 1.33 µM
Nc1nonc1-c1nc2cnccc2n1C1CC1: 5.14 µM
COc1ccc(-c2ccncc2)cc1C(N)=O: > 25 µM
COc1cc2nc(SCc3cc(OC)c(OC)c(OC)c3)n(Cc3ccccc3)c(=O)c2cc1OC: 16.3 µM
COc1cc(OC)c(C(=O)/C=C/c2cc3c(cc2OCc2ccccc2)OC(C)(C)CC3)cc1CC=C(C)C: 13.4 µM
CC(=O)c1ccc2c(c1)C1C=CCC1[C@H](c1cc3c(cc1Br)OCO3)N2 (stereo partly specified): 3.01 µM
COc1ccc2c(=O)cc(-c3ccccc3)[nH]c2c1: 22.2 µM
COC(=O)c1cc2c3ccccc3n3c(=O)c4cc5ccc(N(S(=O)(=O)c6ccc(C)cc6)S(=O)(=O)c6ccc(C)cc6)cc5nc4c(n1)c23: > 100 µM
Cc1nc(N)nc2c1CCC(O)S2 (stereo unspecified): 20.7 µM
O=C(Nc1cc(C(F)(F)F)ccc1Cl)c1ccc(NC2=C(Cl)C(=O)N(Cc3ccccc3)C2=O)cc1: > 100 µM

// next entry
Look up GI50: O=C(O)c1ccc(NCn2nc(-c3ccccc3O)oc2=S)cc1
> 100 µM

* * *

Tested on: RXF-631 renal
Test Name: NCI tumour cell line growth inhibition, 48 h
Quick list: TGI per entry.

Recorded TGI, per entry:
CCNC(=O)COc1ccc(Br)cc1Br: > 100 µM
COc1ccc(N=NC(C(=O)c2ccccc2)C(=O)c2ccccc2)cc1: > 100 µM

Form field: reported TGI of COc1ccc(NC(=O)/C(=C/c2ccccc2)C(C)=O)cc1
31.2 µM

Follow-up item: CCOC(=O)C1=C(Nc2ccc(Cl)cc2Cl)OCC1=O
> 100 µM

Again, but for CCOC(=O)C(=O)Nc1ccccc1C
> 100 µM

What about this molecule? CC1=C(C(=O)CC(=O)C(=O)Nc2cc(C)ccc2C)Sc2ccccc2N1
> 100 µM

* * *

Test system: M19-MEL melanoma
Test Name: NCI tumour cell line growth inhibition, 48 h
# TGI per entry

Below, 5 compounds whose answers are already recorded.
COc1ccc(OC)c(NC(=O)CCC/C(CC(=O)c2ccc(O)c(OC)c2)=N\Nc2nnc(C)n2N)c1: > 100 µM
CC(=O)N/N=C1\CC(C)(C)C2CCC1C2 (stereo not given): > 100 µM
C#Cc1cccc(N2C(=O)c3c(c(-c4ccccc4)c(-c4ccc(Cc5ccc(-c6c(-c7ccccc7)c7c(c(-c8ccccc8)c6-c6ccccc6)C(=O)N(c6cccc(C#C)c6)C7=O)cc5)cc4)c(-c4ccccc4)c3-c3ccccc3)C2=O)c1: 52 µM
COC(=O)/C=C(C)/C=C/C1OC(C)OCC1O (stereo not given): > 100 µM
CCOC(=O)C1=C(Nc2ccc(Cl)cc2Cl)OCC1=O: > 100 µM

# query: TGI of entry CN(Cc1cnc2nc(N)nc(N)c2n1)c1ccc(C(=O)N[C@@H](CCC(=O)O)C(=O)O)cc1
> 250 µM

Now this one: COc1ccc(NC(=O)/C(=C/c2ccccc2)C(C)=O)cc1
29.9 µM

Thanks! And CN(C)CCNc1ccc(CO)c2sc3ccc(O)cc3c(=O)c12 ?
15.9 µM

And then CCNC(=O)COc1ccc(Br)cc1Br , what is it?
> 100 µM

Now consider CCc1ccc(NC(=O)NC(=O)c2ccccc2[N+](=O)[O-])cc1Oc1ncc(Cl)cn1 .
> 100 µM

Another: CN(C(=O)C12C3C4C5C3C1(C(=O)C13C6C7C8C6C1C8C73)C5C42)C(C)(C)C (stereo not given)
> 50 µM

Input CC1=C[C@H]2c3c([nH]c4ccccc34)C(c3c[nH]c4ccccc34)[C@H]2CC1 (stereo not given in full)
22.9 µM

Also Clc1ccc(C(c2ccccc2Cl)C(Cl)Cl)cc1 (stereo not given) , if possible.
39 µM

Same for N#CN/C(N)=N/C/N=C(\N)NC#N
> 100 µM

Same question for CC1=Nc2c(ccc3c2C(=O)c2ccccc2C3=O)NC(c2cccc3c2CCC3)C1 (stereo not given) please.
> 72.6 µM

* * *

System: TK-10 renal
Test Name: NCI tumour cell line growth inhibition, 48 h
Attribute Measured: TGI

Clc1ccc(C(c2ccccc2Cl)C(Cl)Cl)cc1 (configuration not stated): 37.5 µM
CC(C)(C)OC(=O)NC1CC2(C=C(Br)C(=O)C(Br)=C2)OC1=O (configuration not stated): 12.2 µM
N#CN/C(N)=N/C/N=C(\N)NC#N: > 100 µM
CS(=O)(=O)OCCN(CCOS(C)(=O)=O)c1ccc(C=Nc2cccc(Cl)c2)cc1: 6.79 µM
Cc1cc2/c(=C\c3ccc(N(C)C)cc3)c3ccccc3n2[n+]1C: 6.04 µM

Quick check: TGI of COc1cc(C2SCCCCCCCCCCSC(c3ccc(O)c(OC)c3)SCCCCCCCCCCS2)ccc1O (configuration not stated) ?
> 100 µM

Next compound: CN1CN(c2ccccc2)C2(CCN(CC(C)(c3ccc(F)cc3)C3OCCCO3)CC2)C1=O (configuration not stated)
31.9 µM

Try the compound COc1ccc(NC(=O)CSC2=C(Nc3cccc(Br)c3)C(=O)N(Cc3ccccc3)C2=O)cc1Cl
> 100 µM

How about CCOc1ccc2[nH]c3c(C)c4ccncc4c(C)c3c2c1 ?
3.59 µM

// repeat for O=C1c2cc(Cl)ccc2NC(=NC2CCCC2)C2CSCN12 (configuration not stated) and report
> 100 µM

Likewise for O=C1C(Br)=C(c2ccccc2)O/C1=C/C(=O)c1ccc(Br)cc1 ?
> 100 µM

* * *

Entries and their measured TGI follow.
System: LXFL 529 NSCLC
Test Name: NCI tumour cell line growth inhibition, 48 h

COc1ccc(OC)c(NC(=O)CCC/C(CC(=O)c2ccc(O)c(OC)c2)=N\Nc2nnc(C)n2N)c1: > 100 µM
O=C(Cc1nc2ccccc2c(=O)n1-c1ccccc1Cl)c1ccncc1: > 100 µM
CC1=C[C@H]2c3c([nH]c4ccccc34)C(c3c[nH]c4ccccc34)[C@H]2CC1 (stereo not given in full): 15.5 µM

Which TGI value belongs to COc1ccc(N=NC(C(=O)c2ccccc2)C(=O)c2ccccc2)cc1 ?
> 100 µM

Lookup CCC1CC2C(=O)N(c3ccccc3)C(=O)C2c2[nH]c3ccccc3c21 (stereo not given)
70.4 µM

// query: CCC[CH2][Sn]([Cl])([Cl])[CH2]CCC
0.474 µM

Follow-up entry: CC(C)(C)c1cc(C(O)(C(F)(F)F)C(F)(F)F)c2c(c1)C(C(F)(F)F)(C(F)(F)F)OC(C)(C(C)(C)C)N2 (stereo not given)
14.1 µM

Please do the same for C=C1C(=O)OC2C/C(C)=C/CC/C(C)=C/CCC3(COC(C)=O)OC3CC12 (stereo not given) as well.
8.1 µM

Try this molecule too: Clc1ccc(C(c2ccccc2Cl)C(Cl)Cl)cc1 (stereo not given)
38.2 µM

What do you get for CC(=O)N/N=C1\CC(C)(C)C2CCC1C2 (stereo not given) ?
> 100 µM

* * *

Tested on: 786-0 renal
Test Name: NCI tumour cell line growth inhibition, 48 h; in the data active = GI50 below about 0.43 µM; inactive = the rest
Answer with one of the outcomes active, inactive

Worked set:
CN(CCCCCl)P(=O)(OCCS(=O)(=O)CC(NC(=O)CCC(N)C(=O)O)C(=O)NC(C(=O)O)c1ccccc1)OCC1OC(n2ccc(N)nc2=O)C(F)(F)C1O (stereo not drawn): active
O=C1/C(=C/c2cccc(Br)c2)COc2ccc(O)cc21: inactive
COc1ccc(-c2cs/c(=N\N=C\c3ccc(O)cc3O)n2/N=C/c2ccc(O)cc2O)cc1: inactive
FC(F)(c1ccc2ncccc2c1)c1nnc2ccc(-c3ccncc3)nn12: inactive
COc1cccc(/C(C#N)=C/c2nc3c(N4CCOCC4)nc(Cl)nc3n2C)c1: inactive

In this assay, the call recorded for CCOC(=O)Nc1nc2ccc(OC)cc2s1 was what?
inactive

Then what about the compound COc1ccc2cc(/C=C/C(=O)c3ccc(Cl)cc3Cl)ccc2c1 ?
inactive

Check CCCCCCCCOC(=O)CC[C@@H](C)[C@H]1CC[C@H]2[C@@H]3[C@H](OC(=O)CCN)C[C@@H]4C[C@H](OC(=O)CCN)CC[C@]4(C)[C@H]3C[C@H](OC(=O)CCN)[C@]12C too.
inactive

Consider next the compound COc1ccc(-c2ccncc2)cc1C(N)=O in the same way.
inactive

Next compound: Nc1ccccc1C#C/C=C\C#Cc1ccc(OCCCNC(=O)c2cc3ccccc3[nH]2)cc1
inactive

Follow-up item: COC(=O)c1cc2c3ccccc3n3c(=O)c4cc5ccc(N(S(=O)(=O)c6ccc(C)cc6)S(=O)(=O)c6ccc(C)cc6)cc5nc4c(n1)c23
inactive

Input CC(=O)Oc1ccc(C23c4ccccc4C2(OC(C)=O)c2cc(OC(C)=O)ccc23)cc1 (stereo not drawn)
inactive

Next record, please: Cc1nc(-c2ccccc2)n2nc(NCCCN3CCOCC3)ncc12
inactive

Check COc1ccc(NC(=O)CSC2=C(Nc3cccc(Br)c3)C(=O)N(Cc3ccccc3)C2=O)cc1Cl too.
inactive

Same question for C[C@@H]1C[C@H](C)CN(S(=O)(=O)c2ccc3c(NO)c4ccc(S(=O)(=O)N5C[C@H](C)C[C@H](C)C5)cc4c(N=O)c3c2)C1 please.
active

For Cc1nc(N)nc2c1CCC(O)S2 (stereo not drawn) then?
inactive

Another: COc1cc2ncn(-c3cc(OCc4ccccc4C(F)(F)F)c(C(=O)N(C)C)s3)c2cc1OC
inactive

Now try Cn1c(C(=O)c2ccncc2)cc2ccccc21 .
inactive

Reference source: PubChem BioAssay (NCI)
